- Test system: Tetranychus urticae
- Measurement Description: Tetranychus urticae (two-spotted spider mite) leaf disc test
- Assay type: in vivo
- Condition: foliar, 192 h, application rate 200 ppm, bean leaf discs sprayed, 8 days after infestation, read-out: control (mortality on mixed population, mobile stages)
- Procedure: Tetranychus urticae (Two-Spotted Spider Mite): Bean leaf discs on agar in 24-well microtiter plates were sprayed with aqueous test solutions prepared from 10′000 ppm DMSO stock solutions. After drying the leaf discs were infested with a mite population of mixed ages. The samples were assessed for mortality on mixed population (mobile stages) 8 days after infestation.
Exercise: state measured mortality at 200 ppm for each of the compounds provided.

Example compounds with recorded mortality at 200 ppm:
In [3]: df
Out[3]:
                         chemical_structure        target_system       recorded_metric  measured_result
0  Cn1nc(OS(=O)(=O)C(F)(C(F)(F)F)C(F)(F)F)c(C(F)(F)F)c1-c1cc(-c2ccc(Cl)c(C(=O)NC3(C#N)CC3)c2)on1  Tetranychus urticae  mortality at 200 ppm            ≥ 80%
1  CC(C)C(=O)N(C(=O)c1cc(-c2cnn(-c3c(C(F)(F)F)c(OS(=O)(=O)C(F)(C(F)(F)F)C(F)(F)F)nn3C)c2)ccc1Cl)C1(C#N)CC1  Tetranychus urticae  mortality at 200 ppm            ≥ 80%

Exercise: What value of mortality at 200 ppm on Tetranychus urticae does Cn1nc(OS(=O)(=O)C(F)(F)C(F)(F)F)c(C(F)(F)F)c1-n1cc(-c2ccc(Cl)c(C(=O)NC3CC3)c2)cn1 have?
Key: ≥ 80%

###

I'd be grateful if you could share measured percent control (mortality, anti-feedant effect or growth inhibition) at 200 ppm for these entries.
- Tested on: Spodoptera littoralis
- Measurement Description: Spodoptera littoralis (Egyptian cotton leaf worm) leaf disc test
- Assay type: in vivo
- Condition: foliar, 72 h, application rate 200 ppm, cotton leaf discs sprayed, L1 larvae, 3 days after infestation, read-out: control (at least one of mortality, anti-feedant effect, growth inhibition)

Reference set (10 entries):
>>> print(df.to_string())
                                   molecule          target_system  measured_result
0  Cn1nc(OS(=O)(=O)C(F)(C(F)(F)F)C(F)(F)F)c(C(F)(F)F)c1-n1cc(-c2ccc(Cl)c(C(=O)NC3CC3)c2)cn1 [Compound 5]  Spodoptera littoralis            ≥ 80%
1  Cn1nc(OS(=O)(=O)C(F)(C(F)(F)F)C(F)(F)F)c(C(F)(F)F)c1-n1cc(-c2ccc(Cl)c(C(=O)NC3(C(F)F)CC3)c2)cn1 [Compound 64]  Spodoptera littoralis            ≥ 80%
2  CN(C(=O)c1cc(-c2cnn(-c3c(C(F)(F)F)c(OS(=O)(=O)C(F)(F)C(F)(F)C(F)(F)C(F)(F)F)nn3C)c2)ccc1Cl)C1(C#N)CC1 [Compound 6]  Spodoptera littoralis            ≥ 80%
3  CCN(C(=O)c1cc(-c2cnn(-c3c(C(F)(F)F)c(OS(=O)(=O)C(F)(F)C(F)(F)C(F)(F)C(F)(F)F)nn3C)c2)ccc1Cl)C1CC1 [Compound 13]  Spodoptera littoralis            ≥ 80%
4  CN(C(=O)c1cc(-c2cc(-c3c(C(F)(F)F)c(OS(=O)(=O)C(F)(C(F)(F)F)C(F)(F)F)nn3C)no2)ccc1Cl)C1CC1 [Compound 34]  Spodoptera littoralis            ≥ 80%
5  Cn1nc(OS(=O)(=O)C(F)(C(F)(F)F)C(F)(F)F)c(C(F)(F)F)c1-n1cc(-c2ccc(Cl)c(C(=O)NC3(CC#N)CC3)c2)cn1 [Compound 68]  Spodoptera littoralis            ≥ 80%
6  Cn1nc(OS(=O)(=O)C(F)(C(F)(F)F)C(F)(F)F)c(C(F)(F)F)c1-n1cc(-c2ccc(Cl)c(C(=O)N(C=O)C3(C#N)CC3)c2)cn1 [Compound 57]  Spodoptera littoralis            ≥ 80%
7  CN(C(=O)c1cc(-c2cnn(-c3c(C(F)(F)F)c(OS(=O)(=O)C(F)(F)C(F)(F)Cl)nn3C)c2)ccc1Cl)C1CC1 [Compound 11]  Spodoptera littoralis            ≥ 80%
8  CN(C(=O)c1cc(-c2cnn(-c3c(C(F)(F)F)c(OS(=O)(=O)C(F)(F)C(F)(F)F)nn3C)c2)ccc1Cl)C1(C#N)CC1 [Compound 7]  Spodoptera littoralis            ≥ 80%
9  Cn1nc(OS(=O)(=O)C(F)(C(F)(F)F)C(F)(F)F)c(C(F)(F)F)c1-n1cc(-c2ccc(Cl)c(C(N)=O)c2)cn1 [Compound 67]  Spodoptera littoralis            ≥ 80%

// each molecule listed below needs its percent control (mortality, anti-feedant effect or growth inhibition) at 200 ppm
1. CCN(C(=O)c1cc(-c2cc(-c3c(C(F)(F)F)c(OS(=O)(=O)C(F)(F)C(F)(F)C(F)(F)C(F)(F)F)nn3C)no2)ccc1Cl)C1(C#N)CC1 [Compound 44]
2. Cn1nc(OS(=O)(=O)C(F)(C(F)(F)F)C(F)(F)F)c(C(F)(F)F)c1-n1cc(-c2ccc(Cl)c(C(=O)N(CC#N)C3(C#N)CC3)c2)cn1 [Compound 49]

Key:
1: ≥ 80%; 2: ≥ 80%

###

Consider the following compounds; for each one, report its mortality at 200 ppm.
- System: Plutella xylostella
- Measurement Description: Plutella xylostella (diamond back moth) artificial diet test
- Format: in vivo
- Condition: 120 h, application rate 200 ppm, artificial diet, L2 larvae, 5 days after infestation, read-out: control (mortality and growth inhibition)

>>> print(df.to_string())
                         chemical_structure       recorded_metric  measured_result
0  CCOCN(C(=O)c1cc(-c2cnn(-c3c(C(F)(F)F)c(OS(=O)(=O)C(F)(C(F)(F)F)C(F)(F)F)nn3C)c2)ccc1Cl)C1(C#N)CC1  mortality at 200 ppm            ≥ 80%

Look at each compound and report its mortality at 200 ppm.
1. CCN(C(=O)c1cc(-c2cnn(-c3c(C(F)(F)F)c(OS(=O)(=O)C(F)(F)C(F)(F)Cl)nn3C)c2)ccc1Cl)C1CC1
2. CCN(C(=O)c1cc(-c2cnn(-c3c(C(F)(F)F)c(OS(=O)(=O)C(F)(C(F)(F)F)C(F)(F)F)nn3C)c2)ccc1Cl)C1(C#N)CC1

Key:
≥ 80%
≥ 80%

###

- Tested on: Tetranychus urticae
- Measurement Description: Tetranychus urticae (two-spotted spider mite) leaf disc test
- Assay type: in vivo
- Condition: foliar, 192 h, application rate 200 ppm, bean leaf discs sprayed, 8 days after infestation, read-out: control (mortality on mixed population, mobile stages)
Would you mind telling me the reported mortality at 200 ppm of each entry?

// known answers, use as guide
                                   compound       recorded_metric  measured_result
0  Cn1nc(OS(=O)(=O)C(F)(C(F)(F)F)C(F)(F)F)c(C(F)(F)F)c1-n1cc(-c2ccc(Cl)c(C(=O)N[C@H]3C[C@@H]3C#N)c2)cn1 (racemic)  mortality at 200 ppm            ≥ 80%
1  CCN(C(=O)c1cc(-c2cnn(-c3c(C(F)(F)F)c(OS(=O)(=O)C(F)(F)C(F)(F)Cl)nn3C)c2)ccc1Cl)C1CC1  mortality at 200 ppm            ≥ 80%
2  CCC(=O)N(C(=O)c1cc(-c2cnn(-c3c(C(F)(F)F)c(OS(=O)(=O)C(F)(C(F)(F)F)C(F)(F)F)nn3C)c2)ccc1Cl)C1(C#N)CC1  mortality at 200 ppm            ≥ 80%
3  CCN(C(=O)c1cc(-c2cc(-c3c(C(F)(F)F)c(OS(=O)(=O)C(F)(C(F)(F)F)C(F)(F)F)nn3C)no2)ccc1Cl)C1(C#N)CC1  mortality at 200 ppm            ≥ 80%
4  Cn1nc(OS(=O)(=O)C(F)(C(F)(F)F)C(F)(F)F)c(C(F)(F)F)c1-n1cc(-c2cnc(Cl)c(C(=O)NC3CC3)c2)cn1  mortality at 200 ppm            ≥ 80%

Kindly review the next compound as well.
Exercise: For CCN(C(=O)c1cc(-c2cnn(-c3c(C(F)(F)F)c(OS(=O)(=O)C(F)(C(F)(F)F)C(F)(F)F)nn3C)c2)ccc1Cl)C1(C#N)CC1 , what is its reported mortality at 200 ppm?
Key: ≥ 80%

###

- Tested on: Spodoptera littoralis
- Measurement Description: Spodoptera littoralis (Egyptian cotton leaf worm) leaf disc test
- Type: in vivo
- Condition: foliar, 72 h, application rate 200 ppm, cotton leaf discs sprayed, L1 larvae, 3 days after infestation, read-out: control (at least one of mortality, anti-feedant effect, growth inhibition)
Give measured percent control (mortality, anti-feedant effect or growth inhibition) at 200 ppm for each item. Keep answers brief.

Would you please look over these solved cases?
                         chemical_structure  measured_result
0  Cn1nc(OS(=O)(=O)C(F)(C(F)(F)F)C(F)(F)F)c(C(F)(F)F)c1-n1cc(-c2cnc(Cl)c(C(=O)NC3(C#N)CC3)c2)cn1            ≥ 80%
1  CC(=O)N(C(=O)c1cc(-c2cnn(-c3c(C(F)(F)F)c(OS(=O)(=O)C(F)(C(F)(F)F)C(F)(F)F)nn3C)c2)ccc1Cl)C1(C#N)CC1            ≥ 80%

Exercise: // percent control (mortality, anti-feedant effect or growth inhibition) at 200 ppm lookup, key: CN(C(=O)c1cc(-c2cnn(-c3c(C(F)(F)F)c(OS(=O)(=O)C(F)(C(F)(F)F)C(F)(F)F)nn3C)c2)ccc1Cl)C1CC1
Key: ≥ 80%
